Molecular target: APOL1 (Homo sapiens, UniProt O14791)
Assay: Multi-Tox Assay (MultiTox-Fluor Multiplex Cytotoxicity Assay in tet-inducible APOL1 T-REx-HEK293 cells; Table 46 does not say which APOL1 variant G0/G1/G2)
Settings: IP50 = IC50 for cell proliferation, APOL1 variant not given
value.type: IC50

Observe how each entry below is paired with its result.
q: What value of measured IC50 is listed for CCc1cc2c(s1)C1(C[C@@H](c3cn(C)nn3)N[C@@H](C)C1)OCC2 (stereo in doubt) ?
a: < 50 nM

q: # lookup: IC50 of Cc1noc2cc([C@@H]3C[C@]4(C[C@H](C)N3)OCCc3cc(Cl)sc34)ccc12 (racemic)
a: < 50 nM

q: Quick one: IC50 of COc1cc(F)cc(Cn2cc([C@@H]3C[C@]4(C[C@H](C)N3)OCC(F)(F)c3cc(Cl)sc34)nn2)c1 ?
a: 50 to 500 nM

q: Using the record for C[C@H]1C[C@@]2(C[C@@H](c3cnn4c3OCCC4)N1)OCCc1cc(Cl)sc12 (racemic) , report its IC50.
a: > 500 nM

q: // lookup IC50 for COc1nn(C)cc1[C@@H]1C[C@]2(C[C@H](C)N1)OCCc1cc(Cl)sc12 (racemic)
a: > 500 nM

Read the next record carefully.
q: Suppose we examine the compound CC(=O)Nc1ccc(C2CC3(CC(C)N2)OCCc2cc(Cl)sc23)cn1 (stereo not drawn) ; what IC50 value has been reported?
a: < 50 nM

---

Biological target: APOL1 (Homo sapiens, UniProt O14791)
Test: Multi-Tox Assay (MultiTox-Fluor Multiplex Cytotoxicity Assay in tet-inducible APOL1 T-REx-HEK293 cells; Table 46 does not say which APOL1 variant G0/G1/G2)
Conditions: IP50 = IC50 for cell proliferation, APOL1 variant not given
pIC50: −log10 of the molar value.
value.type: pIC50

Example molecules with recorded pIC50:
q: Using the record for CC(C)c1cc2c(s1)C1(C[C@@H](C)N[C@@H](C)C1)OCC2 (single isomer, unassigned) , report its pIC50.
a: 6.30 to 7.30

q: Consider the molecule shown here: Cc1cccc(OCC(O)Cn2cc([C@@H]3C[C@]4(C[C@H](C)N3)OCC(F)(F)c3cc(Cl)sc34)nn2)c1 (stereo partly drawn) What is its recorded pIC50?
a: 6.30 to 7.30

q: Could you tell me which pIC50 is on file for C[C@H]1C[C@@]2(C[C@@H](c3cnn(CC(=O)N(C)C)c3)N1)OCCc1cc(Cl)sc12 ?
a: > 7.30

# return pIC50 for each item in the list
1. Cc1ccnn1CCn1cc([C@@H]2C[C@]3(C[C@H](C)N2)OC[C@@H](O)c2cc(Cl)sc23)nn1
2. CC(C)N1CC(Cn2cc([C@@H]3C[C@]4(C[C@H](C)N3)OCC(F)(F)c3cc(Cl)sc34)nn2)CC1=O (stereo partly drawn)
3. CC(C)C1CC2(CC(c3cn(C)nn3)N1)OCCc1cc(Cl)sc12 (stereo not drawn)
4. C[C@H]1C[C@@]2(C[C@@H](c3ccc4cn[nH]c4c3)N1)OCCc1cc(Cl)sc12 (racemic)
5. C[C@@H]1CC2(C[C@H](C)N1)OCCc1cc(C3CC(F)(F)C3)sc12 (single isomer, unassigned)
6. CC1CC2(CC(C3CCOCC3)N1)OCCc1cc(Cl)sc12 (mixture of isomers)
7. Cc1ncc(Cn2cc([C@@H]3C[C@]4(C[C@H](C)N3)OCC(F)(F)c3cc(Cl)sc34)nn2)cn1
8. C[C@H]1C[C@@]2(C[C@@H](c3cn(Cc4ccc(S(C)(=O)=O)cc4)nn3)N1)OCC(F)(F)c1cc(Cl)sc12

a:
6.30 to 7.30
> 7.30
6.30 to 7.30
> 7.30
6.30 to 7.30
6.30 to 7.30
> 7.30
6.30 to 7.30

Look up pIC50 for the entries below, preserving their order.
1. C[C@H]1C[C@@]2(C[C@@H](c3cn(CCOc4ccccc4F)nn3)N1)OC[C@@H](O)c1cc(Cl)sc12
2. CCc1cc([C@@H]2C[C@]3(C[C@H](C)N2)OCCc2cc(Cl)sc23)on1 (stereo in doubt)
3. COc1ccc([C@@H]2C[C@]3(C[C@H](C)N2)OCCc2cc(Cl)sc23)cc1C#N (racemic)
4. C[C@H]1C[C@@]2(C[C@@H](c3cn(CC4(CO)CC4)nn3)N1)OCC(F)(F)c1cc(Cl)sc12

a:
1: > 7.30; 2: > 7.30; 3: > 7.30; 4: 6.30 to 7.30

Give measured pIC50 for every item shown.
1. COCCn1cc([C@@H]2C[C@]3(C[C@H](C)N2)OC[C@@H](O)c2cc(Cl)sc23)nn1
2. C[C@H]1C[C@@]2(C[C@@H](c3cn(CCc4ccncn4)nn3)N1)OCC(F)(F)c1cc(Cl)sc12
3. C[C@H]1C[C@@]2(C[C@@H](c3cn(Cc4ncnc5[nH]ccc45)nn3)N1)OCC(F)(F)c1cc(Cl)sc12

a:
1: > 7.30; 2: > 7.30; 3: > 7.30

---

Target: APOL1 G1 (Homo sapiens, UniProt O14791, I384M/S342G)
Sequence (O14791 28-398 S342G/I384M): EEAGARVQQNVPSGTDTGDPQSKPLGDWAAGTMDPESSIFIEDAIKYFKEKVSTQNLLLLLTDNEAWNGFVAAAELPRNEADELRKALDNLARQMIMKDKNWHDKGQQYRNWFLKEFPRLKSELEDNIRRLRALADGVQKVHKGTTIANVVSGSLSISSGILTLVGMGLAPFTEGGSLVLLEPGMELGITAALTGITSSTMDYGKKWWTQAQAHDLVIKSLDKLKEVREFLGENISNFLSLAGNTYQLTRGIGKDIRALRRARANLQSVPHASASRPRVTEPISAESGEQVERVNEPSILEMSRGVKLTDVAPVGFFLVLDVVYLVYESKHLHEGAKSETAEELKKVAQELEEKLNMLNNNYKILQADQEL
Assay: Trypanosoma brucei brucei Lysis Assay Using APOL1 Recombinant Protein (AlamarBlue viability readout)
Format: cell-based
Settings: Trypanosome Assay; read-out: Trypanosome Assay Max Activity (%)
Would you mind telling me the reported Emax of each entry?
Give bare numbers, in %.

Past entries and their recorded results:
q: Fill blank: measured Emax of the molecule CC1CC2(CC(CO)N1)OCCc1cc(Cl)sc12 (mixture of isomers) is ____.
a: 104

q: Find the recorded Emax belonging to C[C@H]1C[C@@]2(C[C@@H](c3cnn(C4CCS(=O)(=O)C4)c3)N1)OCCc1cc(Cl)sc12 (stereo in doubt) and report it.
a: 104

q: # Emax lookup, item C[C@H]1C[C@@]2(C[C@@H](c3cn(C)nn3)N1)OCCc1cc(C(F)(F)F)sc12
a: 117

q: Data request, read-out Emax, for COCC1CC2(CC(c3cn(C)nn3)N1)OCCc1cc(Cl)sc12 (stereo not drawn)
a: 92.5

q: Given the molecule C[C@H]1C[C@@]2(C[C@@H](C3CC3)N1)OCC(O)c1cc(Cl)sc12 (stereo partly drawn) , what is its reported Emax?
a: 110

For every record below, what is its Emax?
1. Cc1cc([C@@H]2C[C@]3(C[C@H](C)N2)OCCc2cc(Cl)sc23)nc(N(C)C)n1 (racemic)
2. C[C@H]1C[C@@]2(C[C@@H](c3cn(C)nn3)N1)OCCc1c2sc(C(F)(F)F)c1CO
3. CCOc1cc([C@@H]2C[C@]3(C[C@H](C)N2)OCCc2cc(Cl)sc23)ccc1O (racemic)
4. C[C@H]1C[C@@]2(C[C@@H](c3n[nH]c4ccccc34)N1)OCCc1cc(Cl)sc12 (racemic)
5. C[C@@H]1CC2(C[C@H](C)N1)OCCc1c2sc(C(F)(F)F)c1CO (single isomer, unassigned)

a:
[104, 102, 112, 61, 103]

I have 2 molecules here; please give me Emax for each one.
1. C[C@H]1C[C@@]2(C[C@@H](c3ccc(S(N)(=O)=O)cc3F)N1)OCCc1cc(Cl)sc12 (racemic)
2. CC1CC2(CC(c3cn[nH]c3)N1)OCCc1cc(Cl)sc12 (stereo not drawn)

a:
102
123

---

Target: APOL1 G1 (Homo sapiens, UniProt O14791, I384M/S342G)
Sequence (O14791 28-398 S342G/I384M): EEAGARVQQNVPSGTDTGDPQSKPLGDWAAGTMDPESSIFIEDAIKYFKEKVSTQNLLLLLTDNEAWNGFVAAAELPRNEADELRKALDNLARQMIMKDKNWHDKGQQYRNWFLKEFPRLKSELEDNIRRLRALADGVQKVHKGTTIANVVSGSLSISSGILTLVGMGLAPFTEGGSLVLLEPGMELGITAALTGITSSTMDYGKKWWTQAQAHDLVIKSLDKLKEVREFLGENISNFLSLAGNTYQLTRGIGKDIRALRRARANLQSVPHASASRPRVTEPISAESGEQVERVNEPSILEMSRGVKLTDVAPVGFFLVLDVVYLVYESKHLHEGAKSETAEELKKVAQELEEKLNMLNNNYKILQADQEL
Test: Trypanosoma brucei brucei Lysis Assay Using APOL1 Recombinant Protein (AlamarBlue viability readout)
Assay type: cell-based
Conditions: Trypanosome Assay; IP50 = IC50 for cell proliferation; read-out: Trypanosome Assay IP50
value.type: IC50

q: Which value of IC50 has been reported for C[C@H]1C[C@@]2(C[C@@H](c3cc(C4CC4)no3)N1)OCCc1cc(Cl)sc12 (racemic) in the records?
a: < 0.05 µM

Required: IC50, one value per compound below.
1. CC1CC2(CC(c3ccc4c(c3)oc(=O)n4C)N1)OCCc1cc(Cl)sc12 (stereo not drawn)
2. C[C@H]1C[C@@]2(C[C@@H](c3cn(C)nn3)N1)OC[C@H](O)c1cc(Cl)sc12

a:
< 0.05 µM
0.05 to 0.5 µM
